B1: OR4K15 (parent)
chain: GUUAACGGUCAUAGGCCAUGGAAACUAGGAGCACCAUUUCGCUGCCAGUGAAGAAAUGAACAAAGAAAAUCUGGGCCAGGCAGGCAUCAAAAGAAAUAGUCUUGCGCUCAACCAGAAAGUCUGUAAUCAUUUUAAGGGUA

Variants of: B1
Run Description: self-cleavage, relative activity (ratio to wild type); higher = more cleavage; in vitro, sequencing; the parent is a self-cleaving ribozyme
Give measured self-cleavage for each item. Keep answers brief.
Give bare numbers.

Please review the entries below; each comes with its answer.
GUUAACGGUCAUAGGCCAUGGAGACUAGGAGCACCAUUCCGCUGCCAGUGAAGAAAUGAACAAAGAAAAUCUGGGCCAGGCAGGCAUCAAAAGAAAUAGUCUUGCGCUCAACCAGAAAGUCUGUAAUCAUUUUAAGGGUA: 1.54
GUUAACGGUCAUAGGCCAUGGAAACUAGGAGCACCAUUUCGCUGCCAGUGAAGAAAUGAACAAAGAAAAUCUGGGCCAGGCAGGCAUCAAAAGAAAUAGUAUUGCGCUCAACCGGAAAGUCUGUAAUCAUUUUAAGGGUA: 0.02
GUUAACGGUCAUAGGCCAUGGAAACUAGGAGCACCAUUUCGCUGCUAGUGAAGAAAUGAACAAAGAAAAUCUGGGCCAGGCAGGUAUCAAAAGAAAUAGUCUUGCGCUCAACCAGAAAGUCUGUAAUCAUUUUAAGGGUA: 1.36

Please look at the items below and tell me self-cleavage for each one, in order.
1. GUUAACGGUCAUAGGCCAUGGAAACUAGGAGCACCAUUUCGCUGCCAGUGAAGAAAUGAACAAAGAAGAUCUGGGCCAGGCAGGCACCAAAAGAAAUAGUCUUGCGCUCAACCAGAAAGUCUGUAAUCAUUUUAAGGGUA
2. GUUAACGGUCAUAGGCCAUGGAAACUAGGAGCACCAUUUCGCUGCCAGUGAAGAAAUGAACAAAGAAAAUCUGGGCCAGGCAGGCAUCAAAAGAAAUAGUCUUGCGCACAACCAGAAAGUCUGUAAUCUUUUUAAGGGUA
3. GUUAACGGUCAUAGGCCAUGGAAACUAGGAGCACCUUUUCGCUGCCAGUGAAGAAAUGAACAAAGAAAAUCUGGGCCAGGCAGGCAUCAGAAGAAAUAGUCUUGCGCUCAACCAGAAAGUCUGUAAUCAUUUUAAGGGUA

1.12
0.03
1.74

Please look at the items below and tell me self-cleavage for each one, in order.
1. GUUAACGGUCAUAGGCCAUGGAAACUAGGAGCGCCAUUUCGCUGCCAGUGAAGAAAUGAACAAAGAAAAUCUGGGCCAGGCAGGCAUCAAAAGAAAUAGUCUUGCGCUCAACCAGAAAGUCUGUAGUCAUUUUAAGGGUA
2. GUUAACGGUCAUAGGCCAUGGAAACUAGGAGCACCAUUUCGCUGCCAGUGAAGAAAUGAACAAAGAAGAUCUGGGCCAGGCAGGCAUCAAAAGAAAUAGUCUUGCGCUCAACCAGAAAGUCUGUAACCAUUUUAAGGGUA
3. GUUAACGGUCAUAGGCCAUGGAAACUAGGAGCACCAUUUCGCUGCCAGUGAUGAAAUGAACAAGGAAAAUCUGGGCCAGGCAGGCAUCAAAAGAAAUAGUCUUGCGCUCAACCAGAAAGUCUGUAAUCAUUUUAAGGGUA
4. GUUAACGGUCAUAGGCCAUGGAAACUAGGAGCACCAUUUCGCUGCCAGUGAAGAAAUGAACAAAGAAAAUCUGGGCCUGGCAGGCAUCAAAAUAAAUAGUCUUGCGCUCAACCAGAAAGUCUGUAAUCAUUUUAAGGGUA
5. GUUAACGGUCAUAGGCCAUGGAAACUAGGAGCACCAUUUCGCUGCCAGUGAAGAAAUGAACAAUGAAAAUCUGGGCCAGGCAGGCAUCAAAAGAAAUAGUCUUGCGCUCAACCAGAAAGUCUGUAAUCACUUUAAGGGUA
6. GUUAACGGUCAUAGGCCAUGGAAACUAGGAGCACCAUUUCGCUGCCAGUGAAGAAACGAACAAAGAAAAUCUGGGCCAGGCAGGCAUCAAAAGAAAUAGUCUUGCGCUCAACCAGAAUGUCUGUAAUCAUUUUAAGGGUA
7. GUUAACGGUCAUAGGCCAUGGAAACUAGGAGCACCAUUUCGCUGCCAGUGAAGAAAUGAACAAAGAAAAUCUGGGCCAGGCAGGCGUCAAAAGAAAUAGUCUUGCGCUCAACCAGAAUGUCUGUAAUCAUUUUAAGGGUA
8. GUUAACGGACAUAGGCCAUGGAAACUAGGAGCACCAUUUCGCUGCCAGAGAAGAAAUGAACAAAGAAAAUCUGGGCCAGGCAGGCAUCAAAAGAAAUAGUCUUGCGCUCAACCAGAAAGUCUGUAAUCAUUUUAAGGGUA

[0.7, 1.05, 1.71, 0.53, 1.12, 0.37, 0.52, 1]

Please look at the items below and tell me self-cleavage for each one, in order.
1. GUUAACGGUCAUAGGCCAUGGAAACUAGGAGCACCAUUUCGCUGCCAGUGAGGAUAUGAACAAAGAAAAUCUGGGCCAGGCAGGCAUCAAAAGAAAUAGUCUUGCGCUCAACCAGAAAGUCUGUAAUCAUUUUAAGGGUA
2. GUUAACGGUCAUAGGCCAUGGAAACUAGGAGCACCAUUUCCCUGCCAGUGAUGAAAUGAACAAAGAAAAUCUGGGCCAGGCAGGCAUCAAAAGAAAUAGUCUUGCGCUCAACCAGAAAGUCUGUAAUCAUUUUAAGGGUA
3. GUUAACGGUCAUAGGCCAUGGAAACUAGGAGCACCAUUUCGCUGCCAGUGAAGAAAUGAACAAAGAAAAUCUGGGCCAGGCAGGCAUCAAAAGAAAUAGUCUUGCGCUCAACCAGAAGGUCUGUAAUCAUUUUAAGGGUG
4. GUUAACGGUCAUAGGCCAUGGAAACUAGGAGCACCAUUUCGCUGCCAGUGAAGAAAUGAACAAAGAAAAUCUGGGCCGGGCAGGCAUCAAAAGAAAUAGUCUCGCGCUCAACCAGAAAGUCUGUAAUCAUUUUAAGGGUA
5. GUUAACGGUCAUAGGCCAAGGAAACUAGGAGCACCAUUUCGCUGCCAGUGAAGAAAUGAACAAAGAAAAUCUGGCCCAGGCAGGCAUCAAAAGAAAUAGUCUUGCGCUCAACCAGAAAGUCUGUAAUCAUUUUAAGGGUA
6. GUUAACGGUCAUAGGCCAUGGAAACUAGGAGCACCAUUUCGCUGCCAGUGAAGGAAUGAACAAAGAAAAUCUGGGCCAGGCGGGCAUCAAAAGAAAUAGUCUUGCGCUCAACCAGAAAGUCUGUAAUCAUUUUAAGGGUA
7. GUUAACGGUCAUAGGCCAUGGAAACUAGGAGCACCAUUUCGCUCCCAGUGAAGAAAUGAACAAAGAAAAUCUGGGCCAGGCAGGCAUCAAAAGAAAUAGUCUUGCGCUCAACCAGAAAGUCUGUAAUCAUUUUAAGGGUA

1.51
2.16
1.32
0.11
0.16
0.61
1.33
